# System: NCI-H460 lung
# TEST_METHOD_NOTES: NCI-60 one-dose screen, 48 h (100 = growth as untreated, 0 = no growth, -100 = all killed)
# CONDITION_PARAMETERS: 10 µM
About 83,000 compounds went through this panel and 20% of them were active in at least one assay; those are over-represented in the sample as a whole.
Mark fulfilled only for growth values smaller than 20%; exact matches and larger values are not fulfilled.

Asked: For C/C(=N\NC(N)=S)c1ccc(Nc2nc(SC(C)C)nc(-c3ccccc3)c2C#N)cc1 , is the recorded growth below the cut-off of 20%?
Given back: not fulfilled

Asked: For COC(=O)C[C@](O)(CCCC(C)(C)O)C(=O)O[C@H]1C(OC)=C[C@@]23CCC(=O)N2CCc2cc4c(cc2[C@@H]13)OCO4 , is the recorded growth below the cut-off of 20%?
Given back: not fulfilled

Asked: For C=C[C@@]12CN3CC[C@]1(O)[C@@](C(=O)OC)(CO2)c1[nH]c2ccccc2c1C3 , is the recorded growth below the cut-off of 20%?
Given back: not fulfilled

Asked: For C#Cc1ccc(S(=O)(=O)Nc2cccc(-c3csc(NC(C)=O)n3)c2)cc1 , is the recorded growth below the cut-off of 20%?
Given back: not fulfilled

Asked: For O=C(c1ccc(O)cc1)C1[C@H](c2ccccc2Br)[C@@H](c2ccccc2)NC12C(=O)Nc1ccc(Br)cc12 (some centres undefined) , is the recorded growth below the cut-off of 20%?
Given back: not fulfilled

Asked: For CC(=C(c1ccc(OCCCN(C)C)cc1)c1ccc(OCCCN(C)C)cc1)c1ccccc1 , is the recorded growth below the cut-off of 20%?
Given back: fulfilled

Asked: For Cc1cccc2cc(-c3cc(-c4ccccc4)nc(=O)[nH]3)c(Cl)nc12 , is the recorded growth below the cut-off of 20%?
Given back: not fulfilled

Asked: For O=C(NO)c1ccc(CNc2nc(-c3ccccc3)c3ccccc3n2)cc1 , is the recorded growth below the cut-off of 20%?
Given back: fulfilled

Asked: For O=C1Nc2cc(-c3ccc(NC(=O)c4cccc([N+](=O)[O-])c4)cc3)ccc2/C1=C/c1ccc[nH]1 , is the recorded growth below the cut-off of 20%?
Given back: not fulfilled

Asked: For Cc1cccc(-c2nc(Nc3ccccc3C(=O)O)c3ccccc3n2)c1 , is the recorded growth below the cut-off of 20%?
Given back: fulfilled

Asked: For COc1ccc2[nH]c(O)c(N=NC(=O)COc3ccc(NC(=O)Nc4ccc(Cl)cc4)cc3)c2c1 , is the recorded growth below the cut-off of 20%?
Given back: fulfilled

Asked: For COc1ccc2[nH]cc(/C=N/Nc3ccc(Br)cn3)c2c1 , is the recorded growth below the cut-off of 20%?
Given back: fulfilled

Asked: For CN1CCN(c2ccc(C(=O)/C=C/c3cc(C(F)(F)F)ccc3Cl)cc2)CC1 , is the recorded growth below the cut-off of 20%?
Given back: fulfilled

Asked: For O=C(Nc1ccc(F)c(Cl)c1)c1cc(-c2ccc(F)cc2F)ccc1O , is the recorded growth below the cut-off of 20%?
Given back: fulfilled

Asked: For C=CC(=O)Nc1nc(-c2cccc(NS(=O)(=O)c3cccc4c(N(C)C)cccc34)c2)cs1 , is the recorded growth below the cut-off of 20%?
Given back: fulfilled

Asked: For CN1CCN(c2ccc(Nc3nc(NCCCNC(=O)c4ccc(Cl)cc4)c4sccc4n3)cc2)CC1 , is the recorded growth below the cut-off of 20%?
Given back: not fulfilled

Asked: For O=C(Nc1ccc(OCc2ccccc2)cc1)Nc1ccc(Cl)c(C(F)(F)F)c1 , is the recorded growth below the cut-off of 20%?
Given back: fulfilled

Asked: For O=c1c2ccccc2nc(COc2ccccc2)n1/N=C/c1ccc(F)cc1 , is the recorded growth below the cut-off of 20%?
Given back: not fulfilled

Asked: For COc1ccc(C2NC(=S)NC(C)=C2C(=O)OC(C)C)cc1OC (centres undefined) , is the recorded growth below the cut-off of 20%?
Given back: not fulfilled

----------
# Test system: NCI-H322M lung
# TEST_METHOD_NOTES: NCI-60 one-dose screen, 48 h (100 = growth as untreated, 0 = no growth, -100 = all killed)
# CONDITION_PARAMETERS: 10 µM
Compounds without any hit were thinned out: in the full panel of roughly 83,000, 20% have a hit.
growth class ranges: bin 0 (below 30%), bin 1 (30% to below 70%), bin 2 (70% or more)

CC[C@]12C=CCN3CC[C@@]4(c5cc(C#CCNc6ccc(C)c(Nc7nccc(-c8cccnc8)n7)c6)c(OC)cc5N(C)[C@H]4[C@@](O)(C(=O)OC)[C@@H]1OC(C)=O)C32 (stereo not given in full) | bin 2
CCCCSc1nc(Nc2ccc(/C(C)=N/NC(N)=S)cc2)c(C#N)c(-c2ccc(OC)cc2)n1 | bin 2
CCCCCc1ccc(S(=O)(=O)N(C(C)=O)c2cc(-c3csc(N(C)C(C)=O)n3)ccc2N2CCN(C)CC2)cc1 | bin 1
O=C(c1ccc(Cl)cc1)C1[C@H](c2ccc(Br)cc2)[C@@H](c2ccccc2)NC12C(=O)Nc1ccccc12 (stereo not given in full) | bin 0
CN(C)c1cccc2c(S(=O)(=O)Nc3cccc(-c4csc(NC(=O)CCCCCN5CCN(c6cc7c(cc6F)C(=O)N(C6CCC(=O)NC6=O)C7=O)CC5)n4)c3)cccc12 (stereo not given) | bin 2

Asked: Where would CCNCCCn1c2c(c3cc(OC)c(OC)cc3c1=O)C(=O)c1cc3c(nc1-2)OCO3 land among the classes by reported growth?
Given back: bin 1

Asked: Where would CN1CCN(Cc2ccc(NC(=O)c3cncc(C#Cc4cnc5ccc(N[C@H]6CCOC6)nn45)c3)cc2C(F)(F)F)CC1 land among the classes by reported growth?
Given back: bin 0

----------
# Tested on: EKVX NSCLC
# TEST_METHOD_NOTES: NCI-60 one-dose screen, 48 h (100 = growth as untreated, 0 = no growth, -100 = all killed)
# CONDITION_PARAMETERS: 10 µM
The panel holds about 83,000 compounds, 20% with a hit somewhere; the sample as a whole holds those more often.
Mark true (1) only for growth values smaller than 30%; exact matches and larger values are false (0).

Recorded results for 2 compounds are shown here.
O=C(CSc1nnc(-c2ccc3nc(-c4ccc(Cl)cc4)[nH]c3c2)o1)Nc1ccc(Br)cc1 | true (1)
CC(C)C1=C[C@@]23CC[C@@H]4[C@](C)(CCC[C@]4(C)C(=O)NCc4ccccc4)[C@H]2C[C@@H]1[C@H]1C(=O)CCC(=O)[C@H]13 | false (0)

Asked: For Cc1cc(=O)oc2cc(OCCCCOc3ccc(/C=C/C(=O)Nc4cccc(Cl)c4)cc3)ccc12 , is the recorded growth below the cut-off of 30%?
Given back: false (0)

Asked: For C=CCn1c(SCC(=O)Nc2ccc(C(=O)/C=C/c3ccccc3)cc2)nnc1-c1c[nH]c2ccccc12 , is the recorded growth below the cut-off of 30%?
Given back: false (0)

Asked: For C/C(=C\CSc1ccccc1C(=O)O)CCCC(C)CCCC(C)CCCC(C)C (stereo not drawn) , is the recorded growth below the cut-off of 30%?
Given back: false (0)

Asked: For O=C(CSc1nnc(-c2c[nH]c3ccccc23)n1-c1ccccc1)c1ccc(Cl)cc1 , is the recorded growth below the cut-off of 30%?
Given back: true (1)

----------
# Test system: IGROV1 ovarian
# TEST_METHOD_NOTES: NCI-60 one-dose screen, 48 h
# CONDITION_PARAMETERS: 10 µM
# Experimental: Growth inhibition of the IGROV1 human tumor cell line is measured as a screen for anti-cancer activity. Cells are grown in 96 well plates and exposed to the test compound for 48 hours. Compounds are tested at a single concentration, which is 10^-5 M for most compounds. The reported endpoint is percent growth (GI% or GIPRCNT), where numbers from 0 - 100% represent growth inhibition, and numbers from -100% - 0 represent cell death. For example, a value of 40 represents 60% growth inhibition. […]
The panel holds about 83,000 compounds, 20% with a hit somewhere; the sample as a whole holds those more often. The source made the active and inactive calls. The calls were made as follows: active = growth percent below 10; inactive = the rest.
Select the correct class. Options are active, inactive and nothing else.

Oc1ccc(/C=C2\CCCc3cc4ccc(O)cc4[o+]c32)c(O)c1 | inactive
C=CC(=O)Nc1ccc(C(=O)/C=C/c2ccc(N(C)CCF)cc2)c(O)c1 | active
CN(C)c1ccc(/C=C/C(=O)c2ccc(NC(=O)CN3C(=O)NC(C)(c4ccccc4)C3=O)cc2)cc1 (stereo not given) | inactive
COc1ccc(C(=O)Nc2sc3c(c2C#N)CCC(=O)C3)cc1C(F)(F)F | inactive
COc1ccsc1/C=N/NC(=O)c1[nH]c2ccc(Br)cc2c1-c1ccccc1 | inactive
COc1ccc2cc([C@H](C)C(=O)NCc3ccccc3)ccc2c1 | inactive
Clc1cccc(N/N=C/c2c[nH]c3ccccc23)n1 | active
CC(=O)Nc1ccc(-n2cnc3cc(-c4ccc(O)cc4)ccc32)cc1C | inactive

Asked: Assay outcome for COc1cccc(/C=N/NC(=O)c2ccc3nc(-c4ccc(Cl)cc4)[nH]c3c2)c1O : what was it?
Given back: active

Asked: Assay outcome for CC1=C(C(=O)OC(C)C)C(c2ccc(O)cc2)NC(=S)N1 (stereo not given) : what was it?
Given back: inactive
